Listed next: entries and their corresponding TGI.
- System: SF-295 CNS
- TEST_METHOD_NOTES: NCI tumour cell line growth inhibition, 48 h

{"columns": ["COMPOUND", "TARGET_OR_TEST_SYSTEM", "RESULT_UNIT", "INEQUALITY_OPERATOR", "TGI"],
 "data": [
  ["O=C1O/C(=C/c2ccccc2)C(c2ccccc2)=C1O", "SF-295 CNS", "µM", ">", 100],
  ["CCOP(=O)(OCC)C(NC(=O)C(C(F)(F)F)C(F)(F)F)c1ccccc1 (stereo not given)", "SF-295 CNS", "µM", ">", 100],
  ["Cc1cccc2sc(-c3ccc(O)cc3)nc12", "SF-295 CNS", "µM", "=", 29.1],
  ["C=C(C(=O)OC)[C@@H]1C[C@@H](OC(C)=O)C2=C[C@H](C[C@@]3(C)O[C@@H]3C3=CC(C)=C(O3)[C@H]1OC(C)=O)OC2=O", "SF-295 CNS", "µM", "=", 88.5],
  ["Oc1c(Cl)cc(Cl)c2ccc(Cn3cc(-c4ccc(C(F)(F)F)cc4)nn3)nc12", "SF-295 CNS", "µM", "=", 32.1]
]}

---

- System: SF-539 CNS
- TEST_METHOD_NOTES: NCI tumour cell line growth inhibition, 48 h
Parameter GI50: see the listing below.

{"columns": ["COMPOUND", "GI50"],
 "data": [
  ["CCCCCCCC/C=C/CCCCCCCC1=NC(C)(C)CN1CCO", "1.68 µM"],
  ["C=CCC(N[C@H](CO)c1ccccc1)c1cn(Cc2ccccc2Cl)c(=O)n(Cc2ccccc2Cl)c1=O (some centres undefined)", "15 µM"],
  ["COC(=O)c1cc2c3ccccc3n3c2c(n1)-c1[nH]c2ccccc2c(=O)c1C3", "20.3 µM"],
  ["C#CCN(c1ccc(C(=O)N[C@@H](CCC(=O)N[C@H](CCC(=O)O)C(=O)O)C(=O)O)cc1)C1CCc2cc3nc(CO)[nH]c(=O)c3cc21 (some centres undefined)", "4.38 µM"],
  ["Clc1ccccc1-c1nnc2c(Cc3ccccc3)nc3ccccc3n12", "24.2 µM"],
  ["O=C(NCC1CCCO1)c1ccc(NC2=C(Cl)C(=O)N(Cc3ccccc3)C2=O)cc1 (centres undefined)", "15.4 µM"],
  ["CC1NC(=O)C2=C1C(=O)NC(=O)C2 (centres undefined)", "> 100 µM"],
  ["Nc1nc(/C=C\\c2ccccc2)nc(N2CCN(c3ccccc3)CC2)n1", "41.1 µM"],
  ["Cn1c2c(c3c(Cl)nncc31)Cc1ccccc1-2", "20 µM"],
  ["N#Cc1cnc(Nc2cc(NC[C@H]3CNCCO3)c(C(F)(F)F)cn2)cn1", "0.669 µM"],
  ["CCCCCCCCCC[C@H](O)[C@H](O)CC[C@@H](O)[C@H]1CC[C@@H]([C@H]2CC[C@H](CCCCCCC[C@@H](O)CC3=C[C@H](C)OC3=O)O2)O1", "15.5 µM"],
  ["C/C(=N\\NC(=O)c1ccccc1O)c1cccc(/C(C)=N/NC(=O)c2ccccc2O)n1.O=S(=O)([O-])[O-].[Fe+2]", "> 100 µM"],
  ["CSc1nc2c(c(=O)n1C)CN(C1CCCCC1)C(=O)C(c1ccccc1)N2 (centres undefined)", "51.7 µM"],
  ["Cc1cc(Nc2nc(N[C@@H](C)c3ncc(F)cn3)ncc2Cl)n[nH]1", "14.9 µM"]
]}
